Data origin: PubChem BioAssay AID1745844

- Test system: rodent lifetime carcinogenesis bioassay, tumor incidence TD50
- Experimental protocol: carcinogenic potency in animals, long-term in vivo studies, CPDB compilation (AID 1745844)
- Measurement parameters: mouse; strain Charles River CD1; males; in drinking water; site: lung; lesion: one or several types; types not named; dosed 119 weeks; study length 119 weeks
Activity calls are given as the source filed them. The rule behind the calls is not given here.

Smiles string	TD50
[Cl][Hg][Cl]	11.2 mg/kg/day (inactive)

---

- Test system: rodent lifetime carcinogenesis bioassay, tumor incidence TD50
- Experimental protocol: carcinogenic potency in animals, long-term in vivo studies, CPDB compilation (AID 1745844)
- Measurement parameters: rat; strain IcoIbm:OFA (Sprague-Dawley derived); males; inhaled; site: nasal cavity, olfactory epithelium; lesion: neuroblastoma, in situ; dosed 104 weeks; study length 104 weeks

Smiles string	TD50, mg/kg/day
COc1ccc(C(=O)Nc2c(Cl)cncc2Cl)cc1OC1CCCC1	17
